Where do the numbers come from? From ChEMBL document CHEMBL1201862.

tested on: CCRF-CEM; test: NCI tumour cell line growth inhibition, 48 h
The source made the active and inactive calls. No stated cut-off is given here; in the data, active = GI50 up to about 1.1 µM and inactive = higher.
Outcomes: active, inactive

| molecule | target-desc | class-name |
| --- | --- | --- |
| CCc1n[nH]c(=O)n1CCCCCCCCCCCCn1c(CC)n[nH]c1=O | CCRF-CEM | inactive |
| CC(=O)C(C(=O)C(C)(C)C)C(=O)C(C)(C)C | CCRF-CEM | inactive |
| Cc1[nH]c2ccccc2c1C1=CC(=O)N(c2ccccc2)C1=O | CCRF-CEM | inactive |
| CC(C)(C)CC(C)(C)NC(=S)NO | CCRF-CEM | inactive |
| CC/C(=N\NS(=O)(=O)c1ccccc1)c1ccccc1 | CCRF-CEM | inactive |
| Cc1nc(-n2nc(-c3ccccc3)cc2-c2ccccc2)sc1C(/C=C\c1ccc([N+](=O)[O-])cc1)=N/NC(=S)NN | CCRF-CEM | inactive |
| COC1=C(C)C(=O)C2=C(C1=O)C1C3CC4=C(C(=O)C(OC)=C(C)C4=O)C(CNC(=O)C(C)O)N3C(C#N)C(C2)N1C (stereo not given) | CCRF-CEM | active |
| Cc1ccc(S(=O)(=O)N2CCC[C@@H]2C(=O)O[C@@H]2CCC3CC=CC32)cc1 (stereo not given in full) | CCRF-CEM | inactive |
| O=S(=O)(O)c1ccc(/N=N\c2ccc(/N=N/c3ccc(/C=C/c4ccc(/N=[N+](\[O-])c5ccc(/C=C/c6ccc(/N=N/c7ccc(/N=N/c8ccc(S(=O)(=O)O)cc8)c8ccccc78)cc6S(=O)(=O)O)c(S(=O)(=O)O)c5)cc4S(=O)(=O)O)c(S(=O)(=O)O)c3)c3ccccc23)cc1 | CCRF-CEM | inactive |
| c1ccc(N/N=N/c2ccc(-c3nc4ccccc4[nH]3)cc2)nc1 | CCRF-CEM | inactive |
| COc1cc(/C=C/C(=O)C(C)(C)C)cc(OC)c1OC | CCRF-CEM | inactive |
| COC(=O)C(=O)C(C(=O)C=C(C)C)C(=O)C(=O)Nc1ccc(C)cc1C (stereo not given) | CCRF-CEM | inactive |
| N#CC(NCCc1ccccc1)c1ccccc1 (stereo not given) | CCRF-CEM | inactive |
| CCCCN(CC)C(=O)C(=O)Cc1nc2ccc(C(=O)c3ccccc3)cc2nc1O | CCRF-CEM | inactive |
| OCC1C2CCC3(OCCO3)C12 (stereo not given) | CCRF-CEM | inactive |
| Brc1ccc(-c2nc(-c3ccc(Br)cc3)n(-c3ccccc3)n2)cc1 | CCRF-CEM | inactive |
| [O-]/[N+](=N\c1ccccc1CO)c1ccccc1CO | CCRF-CEM | inactive |
| COC(=O)C12CC3CC(CC(C(=O)O)(C3)C1)C2 | CCRF-CEM | inactive |
| O=[N+]([O-])C(C(Cl)=C(Cl)Cl)=C(n1cncn1)n1cncn1 | CCRF-CEM | inactive |
| O=C1Nc2cccc(Cl)c2/C1=C\c1c(Cl)nc2n1CCS2 | CCRF-CEM | inactive |

* * *

system: MCF7; assay: NCI tumour cell line growth inhibition, 48 h
Calls of active or inactive are those of the source. Cut-off read from the data, not from the text of the source: active = GI50 up to about 1.1 µM and inactive = higher.
Outcomes: active, inactive

| compound | target-desc | class-name |
| --- | --- | --- |
| O=C1ON(Cc2ccccc2)C(c2ccccc2)N1c1ccccc1 (stereo unspecified) | MCF7 | inactive |
| CN1CCN(C(=S)N(C)C(=O)c2cccs2)CC1 | MCF7 | inactive |
| N#CC(C#N)=C1SC(=N\c2ccccc2)/C(=N/c2ccccc2)N1c1ccccc1 | MCF7 | inactive |
| CSc1cc(Cl)c(C)cc1S(=O)(=O)NC(=O)NNc1ccc(F)c(Cl)c1 | MCF7 | inactive |
| C[n+]1c2ccccc2n2c3ccccc3c(NCCc3ccccn3)c(C#N)c21 | MCF7 | active |
| COc1c(OC)c(OC)c(C(=O)/C=C/c2ccccc2)c(OC)c1OC | MCF7 | inactive |
